# testSummary: Inhibition of Escherichia coli heat stable toxin A-stimulated cGMP accumulation in human T84 cells pretreated 10 mins before 1 nM toxin challenge measured after 10 mins of induction by ELISA
# Type: cell-based
The molecules listed here are annotated with their IC50.
testReadout: IC50

| molecule | testReadout | value |
| --- | --- | --- |
| Cn1c2c(c(=O)n(C)c1=O)C(c1cc(F)cc(C(F)(F)F)c1)C1=C(N2)c2ccccc2C1=O (stereo not drawn) | IC50 | 3.4 µM |
| Cn1c2c(c(=O)n(C)c1=O)C(c1cc(C(F)(F)F)cc(C(F)(F)F)c1)C1=C(N2)c2ccccc2C1=O (stereo not drawn) | IC50 | 2.5 µM |
| Cn1c2c(c(=O)n(C)c1=O)C(c1cccc(Br)c1)C1=C(N2)c2ccccc2C1=O (stereo not drawn) | IC50 | 9.6 µM |
